- Target entity: Amine oxidase [flavin-containing] B (Homo sapiens)
- Protocol notes: biochemical
- Description: Inhibition of recombinant human MAO-B expressed in baculovirus infected BTI insect cells using kynuramine as substrate after 30 mins by fluorescence assay
Measured endpoint: IC50
Write the numeric value and append its unit.

Problem: Dear colleague, I am looking for the recorded IC50 of the following molecule: O=C1CCc2ccc(OCCCCCCN3CCCCC3)cc2N1
Solution: 31.7 µM

Problem: Now the same for CC(C)N1CCN(CCCCCOc2ccc3c(c2)NC(=O)CC3)CC1
Solution: 8.1 µM

Problem: Queued: O=C1CCc2ccc(OCCCN3CCC(N4CCCC4)CC3)cc2N1
Solution: 19.2 µM

Problem: Input O=C1CCc2ccc(OCCCCCCN3CCN(c4ccccn4)CC3)cc2N1
Solution: 11.3 µM

Problem: Moving on to O=C1CCc2ccc(OCCCCN3CCc4ccccc4C3)cc2N1
Solution: 6.9 µM

Problem: Item: O=C1CCc2ccc(OCCCN3CCCCC3)cc2N1
Solution: 6.2 µM

Problem: And then O=C1CCc2ccc(OCCCCCCN3CCC(Cc4ccccc4)CC3)cc2N1 , what is it?
Solution: 1.4 µM

Next:
Problem: Any idea what its IC50 is? The molecule is O=C1CCc2ccc(OCCCN3CCN(Cc4ccccc4)CC3)cc2N1
Solution: 21.8 µM

====

- Target entity: Cholinesterase (Equus caballus, UniProt P81908)
- Sequence (P81908 whole entry): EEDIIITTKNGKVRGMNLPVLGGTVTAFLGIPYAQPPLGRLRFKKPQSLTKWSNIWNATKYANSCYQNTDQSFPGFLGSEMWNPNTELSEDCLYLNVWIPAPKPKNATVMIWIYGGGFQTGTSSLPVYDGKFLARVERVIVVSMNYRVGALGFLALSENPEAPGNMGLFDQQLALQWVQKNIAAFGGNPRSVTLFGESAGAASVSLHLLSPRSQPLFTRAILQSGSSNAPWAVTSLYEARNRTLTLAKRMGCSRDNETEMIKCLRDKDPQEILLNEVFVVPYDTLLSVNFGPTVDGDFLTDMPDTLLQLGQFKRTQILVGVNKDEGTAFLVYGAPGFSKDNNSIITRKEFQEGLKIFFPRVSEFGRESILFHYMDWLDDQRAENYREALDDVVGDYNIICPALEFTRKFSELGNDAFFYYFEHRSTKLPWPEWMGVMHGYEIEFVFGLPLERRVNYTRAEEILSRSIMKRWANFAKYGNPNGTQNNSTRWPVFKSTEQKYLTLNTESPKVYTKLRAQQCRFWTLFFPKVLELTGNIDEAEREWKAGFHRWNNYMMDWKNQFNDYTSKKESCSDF
- Protocol notes: Inhibition of equine serum BuChE using butyrylthiocholine chloride as substrate after 15 mins by Ellman's method
Define the label as condition met when IC50 is strictly less than 6 µM and as condition not met in all remaining cases.

Sample answers from the record:
Problem: Hello, is IC50 of the following molecule strictly smaller than 6 µM? O=C1CCc2ccc(OCCCN3CCC(N4CCCC4)CC3)cc2N1
Solution: condition not met

Problem: // repeat for O=C1CCc2ccc(OCCCCCN3CCCCC3)cc2N1 and report
Solution: condition not met

Problem: Can you handle CCN(CC)CCCCCOc1ccc2c(c1)NC(=O)CC2 next?
Solution: condition not met

Problem: Repeat with O=C1CCc2ccc(OCCCN3CCc4ccccc4C3)cc2N1
Solution: condition met

Problem: Also O=C1CCc2ccc(OCCCCCCN3CCN(Cc4ccccc4)CC3)cc2N1 , if possible.
Solution: condition not met

Problem: Now the same for O=C1CCc2ccc(OCCCCCCN3CCc4ccccc4C3)cc2N1
Solution: condition met

Problem: # iterate: C#CCN(CCCCCCOc1ccc2c(c1)NC(=O)CC2)Cc1ccccc1
Solution: condition met

Problem: Next molecule: O=C1CCc2ccc(OCCCN3CCCCC3)cc2N1
Solution: condition not met

Problem: Can you check O=C1CCc2ccc(OCCCCCCN3CCC(Cc4ccccc4)CC3)cc2N1 next?
Solution: condition met

Problem: Next molecule: O=C1CCc2ccc(OCCCN3CCN(c4ccccn4)CC3)cc2N1
Solution: condition not met

Further cases:
Problem: Decide: IC50 of O=C1CCc2ccc(OCCCCN3CCCCC3)cc2N1 strictly below 6 µM?
Solution: condition not met

Problem: Same read-out for CCN(CC)CCCCOc1ccc2c(c1)NC(=O)CC2 ?
Solution: condition not met

====

- Target entity: Amine oxidase [flavin-containing] B (Homo sapiens)
- Sequence (P27338 whole entry): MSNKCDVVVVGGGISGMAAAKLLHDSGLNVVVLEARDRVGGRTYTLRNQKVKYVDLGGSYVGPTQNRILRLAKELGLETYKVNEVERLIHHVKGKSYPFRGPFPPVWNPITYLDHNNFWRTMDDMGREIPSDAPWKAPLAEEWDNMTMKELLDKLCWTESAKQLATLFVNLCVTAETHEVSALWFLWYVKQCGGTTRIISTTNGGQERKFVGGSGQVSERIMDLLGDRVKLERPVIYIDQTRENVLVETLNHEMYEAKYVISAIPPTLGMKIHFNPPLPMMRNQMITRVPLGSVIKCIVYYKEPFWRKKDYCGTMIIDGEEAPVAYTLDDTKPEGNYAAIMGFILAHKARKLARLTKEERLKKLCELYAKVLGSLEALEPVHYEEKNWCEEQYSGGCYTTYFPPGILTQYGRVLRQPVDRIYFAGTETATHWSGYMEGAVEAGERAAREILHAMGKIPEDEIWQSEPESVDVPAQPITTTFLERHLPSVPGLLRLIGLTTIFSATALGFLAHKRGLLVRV
- Protocol notes: biochemical
- Type: cell-based
Measured endpoint: IC50 (µM)
Give the value, in units of µM, as a plain number.

Problem: Which IC50 value belongs to O=C1CCc2ccc(OCCCN3CCc4ccccc4C3)cc2N1 ?
Solution: 18.8

Problem: What do you have for O=C1CCc2ccc(OCCCCCCN3CCCC3)cc2N1 ?
Solution: 3.5

====

- Target entity: Acetylcholinesterase (Electrophorus electricus)
- Sequence (O42275 whole entry): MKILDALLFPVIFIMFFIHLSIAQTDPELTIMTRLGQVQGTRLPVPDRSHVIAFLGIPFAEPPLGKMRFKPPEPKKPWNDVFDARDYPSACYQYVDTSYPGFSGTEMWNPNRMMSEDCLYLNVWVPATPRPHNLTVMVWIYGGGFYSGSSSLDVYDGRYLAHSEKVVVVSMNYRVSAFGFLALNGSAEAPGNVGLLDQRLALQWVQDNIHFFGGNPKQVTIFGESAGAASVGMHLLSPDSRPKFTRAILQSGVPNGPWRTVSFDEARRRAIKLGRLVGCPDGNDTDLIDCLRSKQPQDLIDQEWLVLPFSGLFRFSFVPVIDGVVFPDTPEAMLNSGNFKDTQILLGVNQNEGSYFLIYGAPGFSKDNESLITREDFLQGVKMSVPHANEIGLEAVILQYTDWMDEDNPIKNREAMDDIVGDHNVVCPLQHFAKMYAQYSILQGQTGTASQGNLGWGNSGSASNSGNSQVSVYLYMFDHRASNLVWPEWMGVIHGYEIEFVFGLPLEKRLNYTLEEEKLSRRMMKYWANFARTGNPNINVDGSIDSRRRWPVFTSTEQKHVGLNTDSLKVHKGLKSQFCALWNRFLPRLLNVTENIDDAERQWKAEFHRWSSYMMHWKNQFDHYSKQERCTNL
Measured endpoint: IC50 (µM)
Answer in µM, number only, no unit symbol.

Problem: I'd like to know its IC50. The compound in question is C#CCN(CCCCCOc1ccc2c(c1)NC(=O)CC2)Cc1ccccc1
Solution: 19.4

Problem: Then what about the compound O=C1CCc2ccc(OCCCCCN3CCCCC3)cc2N1 ?
Solution: 12.8

Problem: Likewise for O=C1CCc2ccc(OCCCCCCN3CCC(N4CCCC4)CC3)cc2N1 ?
Solution: 5.3

Problem: Input CCN(CC)CCCCOc1ccc2c(c1)NC(=O)CC2
Solution: 5.1

Problem: Entry CCN(CC)CCCCCOc1ccc2c(c1)NC(=O)CC2 please
Solution: 8.2

***
Problem: Please report the recorded IC50 for C#CCN(CCCCCCOc1ccc2c(c1)NC(=O)CC2)Cc1ccccc1 .
Solution: 13.7

====

- Protocol notes: physchem
- Test settings: PAMPA
- Description: Effective permeability of the compound at 100 ug/ml incubated for 18 hrs by PAMPA-BBB assay
Measured endpoint: Papp at 18 h, 100 ug/ml

# count of solved cases: 6
Problem: Item Cn1c(=O)c2c(ncn2C)n(C)c1=O has what recorded Papp at 18 h, 100 ug/ml?
Solution: 1.28 to 1.3 ×10⁻⁶ cm/s

Problem: Then what about the molecule CCn1cc(C(=O)O)c(=O)c2cc(F)c(N3CCNCC3)cc21 ?
Solution: 0.1 to 0.42 ×10⁻⁶ cm/s

Problem: Next up: Cn1c(=O)c2[nH]cnc2n(C)c1=O.O
Solution: 0.1 to 0.12 ×10⁻⁶ cm/s

Problem: Further, for Clc1cccc(Cl)c1N=C1NCCN1 ?
Solution: 5.1 to 5.3 ×10⁻⁶ cm/s

Problem: Now give it for O=C1CCc2ccc(OCCCCCCN3CCC(Cc4ccccc4)CC3)cc2N1 too.
Solution: 25.6 ×10⁻⁶ cm/s

Problem: Proceed to CCn1cc(C(=O)O)c(=O)c2cc(F)c(N3CCNCC3)nc21
Solution: 0.47 to 0.9 ×10⁻⁶ cm/s

Others:
Problem: Fill in: Papp at 18 h, 100 ug/ml of CN1C(C(=O)Nc2ccccn2)=C(O)c2ccccc2S1(=O)=O is ___
Solution: 0.72 to 2.5 ×10⁻⁶ cm/s

====

- Target entity: Acetylcholinesterase (Rattus norvegicus)
- Sequence (P37136 whole entry): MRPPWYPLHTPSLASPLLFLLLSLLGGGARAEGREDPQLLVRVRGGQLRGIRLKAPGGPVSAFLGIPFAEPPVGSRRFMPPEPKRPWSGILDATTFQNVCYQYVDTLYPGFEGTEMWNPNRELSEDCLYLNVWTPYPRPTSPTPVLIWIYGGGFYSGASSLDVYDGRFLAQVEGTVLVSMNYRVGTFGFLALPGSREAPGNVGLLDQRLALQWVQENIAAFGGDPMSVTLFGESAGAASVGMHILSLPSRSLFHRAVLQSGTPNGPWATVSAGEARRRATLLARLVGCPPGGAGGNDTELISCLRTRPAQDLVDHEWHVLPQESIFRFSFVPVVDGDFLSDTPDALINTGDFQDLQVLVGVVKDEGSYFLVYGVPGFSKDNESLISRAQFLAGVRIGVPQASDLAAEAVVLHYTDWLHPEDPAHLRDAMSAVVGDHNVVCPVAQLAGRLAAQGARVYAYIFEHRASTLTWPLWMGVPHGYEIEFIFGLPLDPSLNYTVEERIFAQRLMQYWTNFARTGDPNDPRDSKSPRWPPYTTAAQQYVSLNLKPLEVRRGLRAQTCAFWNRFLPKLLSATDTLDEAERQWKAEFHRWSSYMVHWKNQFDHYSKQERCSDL
pIC50: −log10 of the molar value.
Would you mind labelling by pIC50? At or over 5 is y, under is n.

These recorded examples may help you get a feel for the data.
Problem: Could you tell me if the measured pIC50 of C#CCN(CCCOc1ccc2c(c1)NC(=O)CC2)Cc1ccccc1 reaches 5 or more?
Solution: n

Problem: Also need O=C1CCc2ccc(OCCCCCCN3CCCCC3)cc2N1 , thanks.
Solution: y

Problem: Continue with O=C1CCc2ccc(OCCCN3CCc4ccccc4C3)cc2N1
Solution: n

More entries:
Problem: State whether the measured pIC50 reaches 5, counting equality as reaching it, for CC(C)N1CCN(CCCOc2ccc3c(c2)NC(=O)CC3)CC1
Solution: n

Problem: // same read-out, input: O=C1CCc2ccc(OCCCN3CCC(N4CCCC4)CC3)cc2N1
Solution: n

Problem: Continue with CC(C)N1CCN(CCCCOc2ccc3c(c2)NC(=O)CC3)CC1
Solution: y

Problem: Check O=C1CCc2ccc(OCCCN3CCN(c4ccccn4)CC3)cc2N1 too.
Solution: n

====

- Species on record: Rattus norvegicus
- Protocol notes: Selectivity index, ratio of IC50 for rat serum BuChE to IC50 for 5% rat cortex homogenate AChE
# Ratio IC50 listing for each entry below
Simply state the number, no unit and no words.

Problem: Find the recorded Ratio IC50 belonging to O=C1CCc2ccc(OCCCCCN3CCN(Cc4ccccc4)CC3)cc2N1 and report it.
Solution: 1.9

Problem: Item: CC(C)N1CCN(CCCCOc2ccc3c(c2)NC(=O)CC3)CC1
Solution: 1

Problem: Another compound to look at: O=C1CCc2ccc(OCCCCCCN3CCc4ccccc4C3)cc2N1
Solution: 1.1

Problem: CC(C)N1CCN(CCCOc2ccc3c(c2)NC(=O)CC3)CC1 ?
Solution: 0.7

Problem: Entry O=C1CCc2ccc(OCCCCN3CCCCC3)cc2N1 please
Solution: 2

Problem: Next up: O=C1CCc2ccc(OCCCCCCN3CCCC3)cc2N1
Solution: 2.5

====

- Species on record: Homo sapiens
- Protocol notes: Selectivity index, ratio of IC50 for recombinant human MAO-B to IC50 for recombinant human MAO-A
API: label(entry) gives true if the entry's Ratio IC50 is strictly smaller than 2; on equality or larger values it gives false.

Before answering, review these 4 worked examples.
Problem: Ratio IC50 strictly < 2 for this compound? CC(C)N1CCN(CCCCCCOc2ccc3c(c2)NC(=O)CC3)CC1
Solution: false

Problem: Param item: CCN(CC)CCCCCOc1ccc2c(c1)NC(=O)CC2
Solution: true

Problem: Check O=C1CCc2ccc(OCCCCN3CCc4ccccc4C3)cc2N1 too.
Solution: true

Problem: Now consider CCN(CC)CCCOc1ccc2c(c1)NC(=O)CC2 .
Solution: false

Continuing:
Problem: Field: below-cutoff. Rule: recorded Ratio IC50 strictly less than 2. Subject: O=C1CCc2ccc(OCCCCCCN3CCCC3)cc2N1
Solution: false

Problem: Request: CC(C)N1CCN(CCCOc2ccc3c(c2)NC(=O)CC3)CC1
Solution: false

Problem: Repeat with O=C1CCc2ccc(OCCCCCCN3CCCCC3)cc2N1
Solution: false

Problem: Now this one: O=C1CCc2ccc(OCCCN3CCN(Cc4ccccc4)CC3)cc2N1
Solution: false

Problem: Try O=C1CCc2ccc(OCCCN3CCc4ccccc4C3)cc2N1 next.
Solution: false

Problem: For O=C1CCc2ccc(OCCCCCN3CCN(c4ccccn4)CC3)cc2N1 then?
Solution: true

Problem: Consider next the compound O=C1CCc2ccc(OCCCCCCN3CCC(Cc4ccccc4)CC3)cc2N1 in the same way.
Solution: false

Problem: Okay, and C#CCN(CCCCCCOc1ccc2c(c1)NC(=O)CC2)Cc1ccccc1 ?
Solution: false

Problem: Thanks! And O=C1CCc2ccc(OCCCCCCN3CCc4ccccc4C3)cc2N1 ?
Solution: true

Problem: Follow-up item: CC(C)N1CCN(CCCCOc2ccc3c(c2)NC(=O)CC3)CC1
Solution: true

Problem: Consider next the compound O=C1CCc2ccc(OCCCCCN3CCN(Cc4ccccc4)CC3)cc2N1 in the same way.
Solution: false

Problem: Cool, now O=C1CCc2ccc(OCCCCCCN3CCC(N4CCCC4)CC3)cc2N1
Solution: false

Problem: And what about the compound CC(C)N1CCN(CCCCCOc2ccc3c(c2)NC(=O)CC3)CC1 ?
Solution: true

Problem: Okay, and CCN(CC)CCCCOc1ccc2c(c1)NC(=O)CC2 ?
Solution: true

Problem: Now the same for O=C1CCc2ccc(OCCCN3CCN(c4ccccn4)CC3)cc2N1
Solution: false

Problem: For CCN(CC)CCCCCCOc1ccc2c(c1)NC(=O)CC2 then?
Solution: true

Problem: Continue with O=C1CCc2ccc(OCCCCN3CCN(Cc4ccccc4)CC3)cc2N1
Solution: true

Problem: Can you check O=C1CCc2ccc(OCCCCCCN3CCN(Cc4ccccc4)CC3)cc2N1 next?
Solution: true

Problem: Another: C#CCN(CCCCOc1ccc2c(c1)NC(=O)CC2)Cc1ccccc1
Solution: true
